# reported melting point; entries follow

Here is how some compounds turned out for melting point.
O=C1C2=C(CCCC2)C(=O)N1c1ccc(Cl)c(CO)c1 :: 77 to 79 °C
Cc1c(-c2ccc(OC(F)(F)F)cc2)[nH]c2ccc(OCc3ccccc3)cc12 :: 127 to 128 °C
CC1(C)CC(O)CC(C)(C)N1C#N :: 96 to 98 °C
O=C(Nc1ccc(C(=O)N2Cc3cccn3Cc3ccccc32)cc1)c1cccc(F)c1F :: 252 to 258 °C
COc1cc2cnnc(N3CCC(CCN(C)C(=O)N(C)C)CC3)c2cc1OC :: 140 to 141 °C

Then there is this compound:
Requested read-out: melting point. Entry: CC(C)CC(C)c1ccccc1NC(=O)c1cn(C)cc1C(F)(F)F (configuration not stated)
83 to 85 °C

----------
# reported melting point; entries follow

Here is how some compounds turned out for melting point.
CC(=O)Nc1ccc2oc(-c3ccc(OCc4ccccc4)c(OCc4ccccc4)c3)c(O)c(=O)c2c1 :: 229 to 230 °C
Cc1cccc(CNC(=O)CC#N)c1 :: 110 to 112 °C
CCC(CC)c1ccc(CO)c2nc(Oc3c(C)cc(Cl)cc3Cl)n(C)c12 :: 141 to 143 °C
CC(C)NCC(=O)N1c2ccccc2N(C)S(=O)(=O)c2ccccc21 :: 115 to 117 °C

Requested read-out: melting point. Entry: CC(C)CNc1nc(-c2ccccc2)cn2ccnc12
81 °C

Requested read-out: melting point. Entry: CC(C)c1cc(C(C)C)c(C(F)C(=O)c2ccc(C(C)C)c(OS(N)(=O)=O)c2C(C)C)c(C(C)C)c1 (stereo unspecified)
130 to 132 °C

Requested read-out: melting point. Entry: Oc1ccc2c(c1)COc1c-2cc2ccc(O)cc2c1-c1ccc(F)c(F)c1
235 to 237 °C

----------
# reported melting point; entries follow

COc1ccc(N2CCC(c3cnc(N)nc3N)CC2)cc1 :: 224 to 225 °C

Requested read-out: melting point. Entry: CCc1sc(N)nc1-c1cc(Br)no1
151 to 152 °C

Requested read-out: melting point. Entry: COC1(c2cc(F)cc(S(=O)(=O)c3ccc4c(c3)CC/C4=N\O)c2)CCOCC1
225 to 226 °C

----------
parameter-measured: melting point

Here is how some compounds turned out for melting point.
CC(=O)Nc1nc(CCc2ccc(N)cc2)c(C(=O)NCc2ccccc2)s1 :: 200 to 201 °C
CCCc1nn(C)c2c(NCc3ccc4c(c3)OCO4)nc(-c3ccc(C(=O)O)cc3)nc12 :: 114 °C
CC(C)(C)[Si](C)(C)Oc1ccc2cc(Br)ccc2c1 :: 62 to 63 °C

Requested read-out: melting point. Entry: CS(=O)c1ccc(-c2nc(=O)c3ccccc3s2)cn1 (stereo not given)
195 to 196 °C

Requested read-out: melting point. Entry: O=C(OCc1ccccc1)C1=C(S(=O)c2ccccc2)CC2CC(=O)N12 (stereo not given)
129 to 131 °C

Requested read-out: melting point. Entry: Cc1cc(-n2ccnc2)c2cccc(OCc3c(Cl)ccc(S(=O)(=O)N4CC[C@@H](O)C4)c3Cl)c2n1
166 °C

Requested read-out: melting point. Entry: O=C(O)c1cn(C2CC2)c2nc(O)c(F)cc2c1=O
325 to 327 °C

Requested read-out: melting point. Entry: COc1cc(C)c(Cl)cn1
32 to 33 °C
